targetUnderTest: p-Akt3 in WM115 cells (Homo sapiens, UniProt Q9Y243)
Construct: SureFire assays to detect cellular p-Akt1, p-Akt2 and p-Akt3 levels in WM115 cells (Akt2/3) and LNCaP cells (Akt1); endogenous in cells; host or cells: WM115 (ECACC 91061232), insulin-stimulated
Sequence (Q9Y243 whole entry): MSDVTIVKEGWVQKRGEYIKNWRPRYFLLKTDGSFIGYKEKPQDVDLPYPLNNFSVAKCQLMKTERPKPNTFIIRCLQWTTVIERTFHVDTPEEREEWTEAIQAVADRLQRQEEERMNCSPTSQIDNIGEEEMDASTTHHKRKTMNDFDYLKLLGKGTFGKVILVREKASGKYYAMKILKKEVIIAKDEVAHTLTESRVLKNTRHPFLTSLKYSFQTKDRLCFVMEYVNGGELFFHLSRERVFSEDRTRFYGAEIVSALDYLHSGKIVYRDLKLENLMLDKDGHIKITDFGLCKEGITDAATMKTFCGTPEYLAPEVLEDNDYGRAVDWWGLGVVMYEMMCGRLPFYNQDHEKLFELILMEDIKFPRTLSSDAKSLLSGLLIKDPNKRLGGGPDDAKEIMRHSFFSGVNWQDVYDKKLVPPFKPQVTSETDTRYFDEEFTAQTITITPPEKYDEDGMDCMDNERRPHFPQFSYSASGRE
protocolDetails: Phospho-Akt cellular SureFire assay, p-Akt3 in WM115 cells
Format: cell-based
conditionLabel: insulin stimulated, read-out: Biological Assay 2 IC50 (nM) Akt3 WM115
valueType: IC50 (nM)

> print(dat)
                                   compound  unit  experimentalresult
1  CC(C)(N)c1ccc(-c2ncc(NC(=O)C[C@H]3CC[C@H](C(=O)N4CCCC4)CC3)cc2-c2ccccc2)cc1    nM                 440
2  CCC(=O)N(C)[C@H]1CC[C@H](CC(=O)Nc2cnc(-c3ccc(C4(N)CC4)c(F)c3)c(-c3ccccc3)c2)CC1 [Example A89]    nM                 130
3  CC(=O)N(C)[C@H]1CC[C@H](CC(=O)Nc2cc(-c3ccccc3)c(-c3ccc([C@]4(N)C[C@](C)(O)C4)cc3)cn2)CC1    nM                  11
4  COC(=O)N(C)[C@H]1CC[C@H](CC(=O)Nc2cc(-c3ccccc3)c(-c3ccc(C(C)(C)N)cc3)cn2)CC1    nM                1700

====

targetUnderTest: Akt3 (Homo sapiens)
Construct: unspecified tag, removed (detagged) (cleaved yes); purchased SignalChem and Proteros (Akt3); Merck Millipore (PDK1) 14-452 (PDK1); none given for Akt3
protocolDetails: Akt activation assay (PDK1-mediated activation, LANCE Ultra crosstide TR-FRET), Akt3
Type: biochemical
conditionLabel: read-out: Biological Assay 1 IC50 (nM) Akt3
Hi! Just check whether IC50 is below 50 nM. Below gives Condition met, equal or above gives Condition not met.

> print(dat)
                               smilesrecord      assignedlabel
1  CC(C)(N)c1ccc(-c2ncc(NC(=O)C[C@H]3CC[C@H](N4CCOC4=O)CC3)cc2-c2ccccc2)cc1  Condition not met
2  CC(C)C(=O)N(C)[C@H]1CC[C@H](CC(=O)Nc2cc(-c3ccccc3)c(-c3ccc(C(C)(C)N)cc3)nn2)CC1  Condition not met
3  CC(C)C(=O)N[C@H]1CC[C@H](CC(=O)Nc2cnc(-c3ccc(C(C)(C)N)cc3)c(-c3ccccc3)c2)CC1  Condition not met
4  CCC(=O)N(C)[C@H]1CC[C@H](CC(=O)Nc2cc(-c3ccccc3F)c(-c3ccc([C@]4(N)C[C@](C)(O)C4)cc3)cn2)CC1      Condition met
5  CC(=O)N(C)[C@H]1CC[C@H](CC(=O)Nc2cc(-c3ccccc3)c(-c3ccc(C4(N)CC4)cc3)nn2)CC1      Condition met
6  CC(=O)N(C)[C@H]1CC[C@H](CC(=O)Nc2cnc(-c3ccc(C(C)(C)N)cc3)c(-c3ccccc3)c2)CC1  Condition not met
7  CN([C@H]1CC[C@H](CC(=O)Nc2cnc(-c3ccc(C4(N)CCC4)cc3)c(-c3ccsc3)c2)CC1)S(C)(=O)=O      Condition met

====

targetUnderTest: p-Akt1 in LNCaP cells (Homo sapiens, UniProt P31749)
Construct: SureFire assays to detect cellular p-Akt1, p-Akt2 and p-Akt3 levels in WM115 cells (Akt2/3) and LNCaP cells (Akt1); endogenous in cells; host or cells: LNCaP (ECACC 89110211)
Sequence (P31749 whole entry): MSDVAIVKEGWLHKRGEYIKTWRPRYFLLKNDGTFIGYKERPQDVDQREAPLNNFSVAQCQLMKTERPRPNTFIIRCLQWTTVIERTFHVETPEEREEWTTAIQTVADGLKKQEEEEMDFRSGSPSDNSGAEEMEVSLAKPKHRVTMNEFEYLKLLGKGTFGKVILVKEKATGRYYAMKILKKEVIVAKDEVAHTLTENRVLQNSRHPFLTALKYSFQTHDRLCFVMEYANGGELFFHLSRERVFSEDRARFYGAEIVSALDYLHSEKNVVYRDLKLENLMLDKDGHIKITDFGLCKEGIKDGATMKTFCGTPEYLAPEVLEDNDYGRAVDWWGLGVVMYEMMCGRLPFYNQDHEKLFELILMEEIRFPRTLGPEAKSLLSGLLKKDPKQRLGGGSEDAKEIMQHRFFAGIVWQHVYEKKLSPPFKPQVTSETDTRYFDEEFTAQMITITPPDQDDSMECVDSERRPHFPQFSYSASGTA
protocolDetails: Phospho-Akt cellular SureFire assay, p-Akt1 in LNCaP cells
Assay type: cell-based
conditionLabel: read-out: Biological Assay 2 IC50 (nM) Akt1 LNCaP
Each entry below carries its recorded IC50.
valueType: IC50

> print(dat)
                                smilesrecord                           targetundertest  valuetype  experimentalresult
 1  NC1(c2ccc(-c3nnc(NC(=O)C[C@H]4CC[C@H](N5CCOC5=O)CC4)cc3-c3ccccc3)cc2)CC(F)(F)C1  p-Akt1 in LNCaP cells (Homo sapiens, UniProt P31749)       IC50          > 30000 nM
 2  CCCC(=O)N(C)[C@H]1CC[C@H](CC(=O)Nc2cnc(-c3ccc(C4(N)CC4)cc3)c(-c3ccccc3)c2)CC1  p-Akt1 in LNCaP cells (Homo sapiens, UniProt P31749)       IC50          > 16000 nM
 3  C[C@]1(O)C[C@@](N)(c2ccc(-c3nnc(NC(=O)C[C@H]4CC[C@H](N5CCOC5=O)CC4)cc3-c3ccccc3)cc2)C1  p-Akt1 in LNCaP cells (Homo sapiens, UniProt P31749)       IC50             4000 nM
 4  CC(C)(N)c1ccc(-c2nnc(NC(=O)C[C@H]3CC[C@H](N4CCOC4=O)CC3)cc2-c2ccccc2)cc1  p-Akt1 in LNCaP cells (Homo sapiens, UniProt P31749)       IC50          > 30000 nM
 5  NC1(c2ccc(-c3nnc(NC(=O)C[C@H]4CC[C@H](N5CCOC5=O)CC4)cc3-c3ccccc3)cc2F)CC1  p-Akt1 in LNCaP cells (Homo sapiens, UniProt P31749)       IC50          > 30000 nM
 6  CC(=O)N(C)[C@H]1CC[C@H](CC(=O)Nc2cc(-c3ccsc3)c(-c3ccc(C4(N)CC4)c(F)c3)nn2)CC1  p-Akt1 in LNCaP cells (Homo sapiens, UniProt P31749)       IC50          > 30000 nM
 7  CCOC(=O)N(C)[C@H]1CC[C@H](CC(=O)Nc2cc(-c3ccccc3)c(-c3ccc(C4(N)CC4)cc3)nn2)CC1  p-Akt1 in LNCaP cells (Homo sapiens, UniProt P31749)       IC50          > 30000 nM
 8  COC(=O)N(C)[C@H]1CC[C@H](CC(=O)Nc2cc(-c3ccccc3)c(-c3ccc(C4(N)CC4)cc3)nn2)CC1  p-Akt1 in LNCaP cells (Homo sapiens, UniProt P31749)       IC50          > 30000 nM
 9  CCOC(=O)N(C)[C@H]1CC[C@H](CC(=O)Nc2cnc(-c3ccc([C@]4(N)C[C@](C)(O)C4)cc3)c(-c3ccccc3)c2)CC1  p-Akt1 in LNCaP cells (Homo sapiens, UniProt P31749)       IC50              880 nM
10  CC(=O)N(C(C)C)[C@H]1CC[C@H](CC(=O)Nc2cnc(-c3ccc([C@]4(N)C[C@](C)(O)C4)cc3)c(-c3ccccc3)c2)CC1  p-Akt1 in LNCaP cells (Homo sapiens, UniProt P31749)       IC50             1300 nM
11  COCCN(C)[C@H]1CC[C@H](CC(=O)Nc2cnc(-c3ccc(C4(N)CCC4)cc3)c(-c3ccsc3)c2)CC1  p-Akt1 in LNCaP cells (Homo sapiens, UniProt P31749)       IC50          > 14000 nM
12  CC(=O)N[C@H]1CC[C@H](CC(=O)Nc2cnc(-c3ccc([C@]4(N)C[C@H](F)C4)cc3)c(-c3ccccc3)c2)CC1  p-Akt1 in LNCaP cells (Homo sapiens, UniProt P31749)       IC50          > 22000 nM
13  CC(C)(N)c1ccc(-c2ncc(NC(=O)C[C@H]3CC[C@H](N4CCOC4=O)CC3)cc2-c2ccccc2)cc1  p-Akt1 in LNCaP cells (Homo sapiens, UniProt P31749)       IC50          > 30000 nM

====

targetUnderTest: Akt3 (Homo sapiens, UniProt Q9Y243)
Construct: unspecified tag, removed (detagged) (cleaved yes); purchased SignalChem and Proteros (Akt3); Merck Millipore (PDK1) 14-452 (PDK1); none given for Akt3
Sequence (Q9Y243 whole entry): as the sequence (Q9Y243 whole entry) above
protocolDetails: Akt activation assay (PDK1-mediated activation, LANCE Ultra crosstide TR-FRET), Akt3
Type: biochemical
conditionLabel: read-out: Biological Assay 1 IC50 (nM) Akt3
Method: Biological Assay 1: Akt Activation Assay Addition of a Europium-labelled antibody specific to the phosphopeptide allows energy transfer from the Europium donor to the Ultra Ulight™ acceptor if close enough in proximity. […] 5 μL enzyme in 1×AB was incubated with 2.5 μL test compound. […] Plates read with the EnVision® Multilabel Plate Reader, excitation at 320 nm and emission at 665 nm and 615 nm. Compound IC50 was determined using a 4-parameter equation.
Reported IC50 values follow for various molecules
valueType: IC50 (nM)

> print(dat)
                                    molecule  experimentalresult
 1  COC(=O)N[C@H]1CC[C@H](CC(=O)Nc2cc(-c3ccccc3)c(-c3ccc([C@]4(N)C[C@](C)(O)C4)cc3)cn2)CC1                  11
 2  CC(=O)N(C)[C@H]1CC[C@H](CC(=O)Nc2cnc(-c3ccc(C4(N)CC(C)(O)C4)c(F)c3)c(-c3ccccc3)c2)CC1 (stereo partly shown)                  36
 3  CC(=O)N(C)[C@H]1CC[C@H](CC(=O)Nc2cc(-c3ccsc3)c(-c3ccc(C4(N)CCC4)cc3)cn2)CC1                  30
 4  COC(=O)N(C)[C@H]1CC[C@H](CC(=O)Nc2cc(-c3ccsc3)c(-c3ccc(C4(N)CCC4)cc3)nn2)CC1                  59
 5  N[C@]1(c2ccc(-c3nnc(NC(=O)C[C@H]4CC[C@H](N5CCOC5=O)CC4)cc3-c3ccsc3)cc2)C[C@@H](F)C1                  26
 6  CC(=O)N(C)[C@H]1CC[C@H](CC(=O)Nc2cc(-c3ccccc3)c(-c3ccc(C4(N)CCC4)cc3)cn2)CC1                  92
 7  CC(=O)N(C)[C@H]1CC[C@H](CC(=O)Nc2cc(-c3ccccc3)c(-c3ccc([C@]4(N)C[C@H](F)C4)cc3)nn2)CC1                 100
 8  NC1(c2ccc(-c3cnc(NC(=O)C[C@H]4CC[C@H](N5CCOC5=O)CC4)cc3-c3ccsc3)cc2)CCC1                  42
 9  CCOC(=O)N(C)[C@H]1CC[C@H](CC(=O)Nc2cnc(-c3ccc(C(C)(C)N)cc3)c(-c3ccccc3)c2)CC1                 130
10  CC(=O)N(C)[C@H]1CC[C@H](CC(=O)Nc2cnc(-c3ccc(C4(N)CCC4)cc3)c(-c3ccccc3)c2)CC1                  30
11  NC1(c2ccc(-c3nnc(NC(=O)C[C@H]4CC[C@H](N5CCOC5=O)CC4)cc3-c3ccccc3)cc2)CCC1                   5
12  COC(=O)N(C)[C@H]1CC[C@H](CC(=O)Nc2cnc(-c3ccc(C4(N)CCC4)cc3)c(-c3ccccc3)c2)CC1                 110
13  CCC(=O)N(C(C)C)[C@H]1CC[C@H](CC(=O)Nc2cnc(-c3ccc([C@]4(N)C[C@](C)(O)C4)cc3)c(-c3ccccc3)c2)CC1                   8
